# assay_info: Cytotoxicity against african green monkey Vero cells incubated for 48 hrs by CCK8 assay
# Type: toxicity, cell-based, Chlorocebus sabaeus
measure_name: IC50 at 48 h (µg/mL)
Response body: numeric value in µg/mL, unit text excluded.

Observe how each entry below is paired with its result.
INPUT: Tell us which IC50 at 48 h value is on record for CCCCSc1nc2c(c(=O)[nH]1)C(c1ccc(OCCC)cc1)CC(=O)N2 (configuration not stated)
OUTPUT: 57

INPUT: Tell us which IC50 at 48 h value is on record for CCCOc1ccc(C2CC(=O)Nc3nc(SCCC)[nH]c(=O)c32)cc1 (configuration not stated)
OUTPUT: 12.1

INPUT: Tell us which IC50 at 48 h value is on record for CCCSc1nc2c(c(=O)[nH]1)C(c1ccc(OC)cc1)CC(=O)N2 (racemic)
OUTPUT: 14.5

Here is another compound to look at.
INPUT: Tell us which IC50 at 48 h value is on record for CCCSc1nc2c(c(=O)[nH]1)C(c1ccccc1)CC(=O)N2C (configuration not stated)
OUTPUT: 52.5

Attribution: ChEMBL document CHEMBL5584339
